# measured.on: aldosterone synthase (CYP11B2) (Homo sapiens)
# Sequence (P19099 25-503): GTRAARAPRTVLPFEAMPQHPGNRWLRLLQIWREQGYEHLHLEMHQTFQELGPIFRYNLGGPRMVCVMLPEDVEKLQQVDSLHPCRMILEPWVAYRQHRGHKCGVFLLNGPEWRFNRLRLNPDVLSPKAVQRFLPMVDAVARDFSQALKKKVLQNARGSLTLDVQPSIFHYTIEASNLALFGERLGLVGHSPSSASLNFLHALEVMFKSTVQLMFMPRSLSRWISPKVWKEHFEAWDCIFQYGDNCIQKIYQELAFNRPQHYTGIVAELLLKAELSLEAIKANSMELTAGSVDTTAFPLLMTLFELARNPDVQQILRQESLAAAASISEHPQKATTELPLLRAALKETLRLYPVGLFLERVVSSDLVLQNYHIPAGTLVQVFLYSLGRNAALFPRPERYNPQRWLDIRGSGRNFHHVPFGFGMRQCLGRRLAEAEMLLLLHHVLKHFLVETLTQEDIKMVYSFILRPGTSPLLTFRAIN
# test.description: in vitro aldosterone synthase inhibition: aldosterone production in Ang II-stimulated NCI-H295R cells
# conditions: Table 1, read-out: AS IC50
Attribute: log10(IC50)
Could you please treat all values as log10 of IC50 in nM?

Returns the measured log10(IC50) for the input molecule. Input: Cc1noc(-c2cncn2C2Cc3ccccc3C2)n1 [LDK260]
1.98

Lookup COC(=O)c1cncn1C1CCc2ccccc2C1 (centres unmarked) [LDI154]
0.78

Lookup COC(=O)c1cn(C2Cc3ccccc3C2)cn1 [LDG688]
0.95

Lookup ON=Cc1cncn1C1Cc2ccccc2C1 [LDK909]
2.58

Lookup COC(=O)c1cncn1C1COc2ccccc2OC1 [LDS237]
2.33

---

# measured.on: CYP11B1 (steroid 11β-hydroxylase) (Homo sapiens, UniProt P15538)
# Construct: Thus, the NCl-H295R cells have CYP11B1 (steroid 11 p-hydroxylase)
# Sequence (P15538 25-503): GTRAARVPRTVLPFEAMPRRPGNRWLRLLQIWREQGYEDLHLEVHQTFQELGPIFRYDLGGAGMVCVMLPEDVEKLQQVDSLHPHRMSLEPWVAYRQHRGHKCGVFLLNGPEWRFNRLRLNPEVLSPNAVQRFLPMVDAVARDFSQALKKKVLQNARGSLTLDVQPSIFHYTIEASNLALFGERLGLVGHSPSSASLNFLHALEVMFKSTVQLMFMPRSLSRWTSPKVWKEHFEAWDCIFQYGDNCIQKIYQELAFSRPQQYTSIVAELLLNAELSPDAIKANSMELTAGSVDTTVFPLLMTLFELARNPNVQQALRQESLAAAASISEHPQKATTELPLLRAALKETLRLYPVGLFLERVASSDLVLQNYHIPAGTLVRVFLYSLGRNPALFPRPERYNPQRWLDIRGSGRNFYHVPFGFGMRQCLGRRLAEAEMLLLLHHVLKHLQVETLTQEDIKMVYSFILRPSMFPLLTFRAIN
# test.description: in vitro CYP11B1 inhibition: steroid release from NCI-H295R cells
# conditions: Table 1
measure: IC50 (µM)
Supply the numeric figure in µM, leaving out any unit text.

// below: answered compounds
>>> print(df.to_string())
                                   compound  unit_label  data_value
0  COC(=O)c1cncn1C1CCc2ccccc2C1 (stereo not drawn)          µM       0.042
1             COC(=O)c1cn(C2Cc3ccccc3C2)cn1          µM       0.107

Let us move to another entry and its IC50.
Returns the measured IC50 for the input compound. Input: Cc1noc(-c2cncn2C2Cc3ccccc3C2)n1
0.725

Data origin: patent US20100041722A1
